Experiment: Pharmacokinetic study of (+)-JQ1 in mice (plasma, LCMS-MS)
Type: in vivo
Settings: mouse, plasma, ip; single intraperitoneal injection 50 mg/kg, adult C1 male mice; read-out: peak plasma concentration (Cmax)
ENDPOINT_NAME: Cmax

Q: Hello, please tell me recorded Cmax for this one: Cc1sc2c(c1C)C(c1ccc(Cl)cc1)=N[C@@H](CC(=O)OC(C)(C)C)c1nnc(C)n1-2 [(+)-JQ1]
A: > 20 µM

====

Assay: Pharmacokinetic study of (+)-JQ1 in mice (plasma, LCMS-MS)
Format: in vivo
Conditions: mouse, plasma, ip; single intraperitoneal injection 50 mg/kg, adult C1 male mice; read-out: total drug exposure (AUC)
ENDPOINT_NAME: AUC

Q: Please look at this compound and report its AUC: Cc1sc2c(c1C)C(c1ccc(Cl)cc1)=N[C@@H](CC(=O)OC(C)(C)C)c1nnc(C)n1-2 [(+)-JQ1]
A: > 20000 ng·h/mL
